Test system: F1*sub RNA substrate (template-directed ligation)
experimental.details: fraction ligated after 30 min (ligated reads / total reads); higher = more ligase activity; sequences stand for … in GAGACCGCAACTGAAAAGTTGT…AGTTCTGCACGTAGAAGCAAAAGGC
stated.conditions: 42 °C
measured.parameter: fraction ligated

>>> measured_number("TATCACTTTCGTAAGACTTTGGATGGGTTGA [3d1529]")
0.823
>>> measured_number("TATCACTTGTGTAAGAACTTTGGATGGTTGA [3d1769]")
0.0688
>>> measured_number("TTCACTTGTCGTAAACACTTTGGATGGTTGA [3d449]")
0.067
>>> measured_number("TAACTTGTCGTAAGACACTTTGGATGGGTTGA [2d47]")
0.271
>>> measured_number("TATCACTTCGTAAGACCTTTGGATGGGTTGA [3d1318]")
0.802
>>> measured_number("TATCACTTTGTAAGACCTTTGGATGGGTTGA [3d1470]")
0.769
>>> measured_number("TATCACTTCGTAAGACACTTGGATGGGTTGA [3d1320]")
0.796
>>> measured_number("TATCACTTGTCAAACACTTTGGATGGGTTGA [3d1811]")
0.802
>>> measured_number("TTCACTGTCGTAGACACTTTGGATGGGTTGA [3d342]")
0.775
>>> measured_number("TATCACTGTCTAAGCACTTTGGATGGGTTGA [3d1361]")
0.771
>>> measured_number("TACCTTGTCGTAAGCACTTTGGATGGGTTGA [3d536]")
0.668
>>> measured_number("TATACTTGGTAAGACACTTTGGATGGGTTGA [3d812]")
0.653
>>> measured_number("TATCACTTGTCGTAAGACACTTTGAGGGTTGA [2d285]")
0.00683
>>> measured_number("TAACTTGTCGTAAGACACTTTGGAGGGTTGA [3d524]")
0.0881
>>> measured_number("TTCACTTGTCGTAAGACACTTTATGGGTTGA [3d491]")
0.00731
>>> measured_number("ATCACTTGTCGTAAGCACTTTGGATGGTTGA [3d228]")
0.195
>>> measured_number("TATACTTGTCGAAGACACTTTGGATGGTTGA [3d867]")
0.0528
>>> measured_number("TATCACTTGTCGTAACACTTTGGATGGGTTGA [2d222]")
0.796
>>> measured_number("TACACTGTCGTAAGACCTTTGGATGGGTTGA [3d576]")
0.752
>>> measured_number("TATACTTGTGTAAGCACTTTGGATGGGTTGA [3d832]")
0.776
>>> measured_number("ATCACTTGTCGTAAGACATTGGATGGGTTGA [3d246]")
0.739
>>> measured_number("TATCTTGTCTAAGACACTTTGGATGGGTTGA [3d743]")
0.742
>>> measured_number("TATCATGTCGTAAGACACTTTGGATGGGTTG [3d1139]")
0.784
>>> measured_number("TATCACTTGTGTAAGACACTTTGGATGGGTTG [2d193]")
0.845
